ELISA signal with Free CD3e 62.5 pmol values, listed per item
Target: T1, biotin-labeled human CD137 fused to human IgG1 Fc fragment (human, biotin-labeled)
T1 construct: also called human CD137-Fc; biotin-human CD137-Fc
Experiment: bead ELISA (chemiluminescence), IgG on biotin-human CD137-Fc on streptavidin beads; competitor free CD3 epsilon 62.5 pmol
measured.metric: ELISA signal with Free CD3e 62.5 pmol

# binder, meas.value
records = [
    ("dBBDu_H115/L014 (antibody, human IgG1, V domains shown, Full length IgG (human IgG1 CH1-Fc heavy chain, kappa light chain)) VH: QVQLVESGGGLVQPGRSLRLSCAASGFTFSNAWMHWVRQAPGKGLEWVAQIKDKANSYNTYYAPSVKGRFTISRDDSKNSIYLQMNSLKTEDTAVYYCRYVHYGSSYGFLFAGYGVDAWGQGTTVTVSS VL: DIVMTQSPLSLPVTPGEPASISCTSSQSLLHQNRNTYLHWYQQKPGQAPRLLIYKVSNRFNGVPDRFSGSGSGTDFTLKISRVEAEDVGVYYCAQGTANPFTFGQGTKLEIK", 1510),
    ("dBBDu_H115/L016 (antibody, human IgG1, V domains shown, Full length IgG (human IgG1 CH1-Fc heavy chain, kappa light chain)) VH: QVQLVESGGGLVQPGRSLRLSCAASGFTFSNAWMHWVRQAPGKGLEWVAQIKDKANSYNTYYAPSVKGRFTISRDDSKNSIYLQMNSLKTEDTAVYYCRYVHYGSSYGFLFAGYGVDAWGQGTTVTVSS VL: DIVMTQSPMSLPVTPGEPASISCQSSESLLHANRNTYLHWYQQKPGQAPRLLIYKVSNRFNGVPDRFSGSGSGTDFTLKISRVEAEDVGVYYCAQGTANPYTFGQGTKLEIK", 1540),
    ("dBBDu_H115/L035 (antibody, human IgG1, V domains shown, Full length IgG (human IgG1 CH1-Fc heavy chain, kappa light chain)) VH: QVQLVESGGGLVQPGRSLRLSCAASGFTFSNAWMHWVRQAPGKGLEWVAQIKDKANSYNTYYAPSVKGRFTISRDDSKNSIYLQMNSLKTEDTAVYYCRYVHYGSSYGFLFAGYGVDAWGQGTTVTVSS VL: DIVMTQSPLSLPVTPGEPASISCAASESLLHTNRNTYLHWYQQKPGQAPRLLIYKVSNRFSGVPDRFSGSGSGTDFTLKISRVEAEDVGVYYCAQGTQSPFTFGQGTKLEIK", 1470),
    ("dBBDu_H115/L008 (antibody, V domains shown, Full length IgG (human IgG1 CH1-Fc heavy chain, kappa light chain); also called Du115/DUL008) VH: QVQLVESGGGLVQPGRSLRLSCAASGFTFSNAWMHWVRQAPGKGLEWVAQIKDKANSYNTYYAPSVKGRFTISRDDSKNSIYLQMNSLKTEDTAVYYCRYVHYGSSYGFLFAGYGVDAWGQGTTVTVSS VL: DIVMTQSPLSLPVTPGEPASISCQSSEELLHANRKTYLHWYQQKPGQAPRLLIYKVQNRFSGVPDRFSGSGSGTDFTLKISRVEAEDVGVYYCAQGTATPFTFGQGTKLEIK", 1450),
    ("dBBDu_H115/L039 (antibody, human IgG1, V domains shown, Full length IgG (human IgG1 CH1-Fc heavy chain, kappa light chain)) VH: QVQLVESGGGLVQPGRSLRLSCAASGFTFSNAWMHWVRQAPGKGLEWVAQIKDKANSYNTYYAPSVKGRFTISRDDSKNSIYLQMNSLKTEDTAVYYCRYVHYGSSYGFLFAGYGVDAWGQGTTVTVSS VL: DIVMTQSPLSLPVTPGEPASISCTSSQSLLHANRNTYLHWYQQKPGQAPRLLIYKVSNRFSGVPDRFSGSGSGTDFTLKISRVEAEDVGVYYCAQGTSAPFTFGQGTKLEIK", 1550),
]
